- Read-out: serum amyloid A (SAA), SAA1 (gene 6288)
- EXPERIMENTAL PROTOCOL: BSK_CASM3C_SAA: BioMAP Diversity Plus: CASM3C Assay for serum amyloid A (SAA) Biomarker Activity (AID 2283049);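 also: SAA protein level quantified by ELISA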
- CONDITION INFO: primary human coronary artery smooth muscle cells; actives raise or lower the signal
Activity calls are given as the source filed them. The calls were made as follows: active = hit-call score of the fitted dose curve at least 0.9, where 1 is the maximum; inactive = score below 0.9.
QUANTITY NAME: AC50

COMPOUND	QUANTITY NAME	EXPERIMENTAL VALUE
Oc1ccccc1Cc1ccccc1O	AC50	inactive
CCc1cccc(C)c1N(C(=O)CS(=O)(=O)O)C(C)COC (stereo not drawn)	AC50	inactive
Oc1ccc(/C=C/c2cc(O)cc(O)c2)cc1	AC50	15.9 µM (active)

###

- Read-out: TIMP metallopeptidase inhibitor 1 (TIMP1), TIMP1 (gene 7076)
- EXPERIMENTAL PROTOCOL: BSK_MyoF_TIMP1: BioMAP Diversity Plus: MyoF Assay for TIMP metallopeptidase inhibitor 1 (TIMP1) Biomarker Activity (AID 2284269)
- CONDITION INFO: primary human lung fibroblasts
- Experimental: BSK_MyoF is a cell-based, multiplexed-readout assay that uses lung fibroblasts, […], with measurements taken at 24 hours after chemical dosing in a microplate: 96-well plate.BSK_MyoF_TIMP1 is an assay component measured in the BSK_MyoF assay. […] The levels of cell surface (or secreted, indicated by the prefix "s") biomarker endpoints were measured by ELISA. […] Plates were read after 6 h.
Active and inactive are the calls of the source. The calls were made as follows: active = hit-call score of the fitted dose curve at least 0.9, where 1 is the maximum; inactive = score below 0.9.

COMPOUND	outcome
CCOC(=O)C1=NOC(c2ccccc2)(c2ccccc2)C1	inactive
CCOC(=O)/C=C\C(=O)OCC	inactive
O=C(Cl)c1c(Cl)c(Cl)c(C(=O)Cl)c(Cl)c1Cl	inactive
C=CC(=O)NCOCCCC	inactive
CCOC(=O)C1=NN(c2ccc(Cl)cc2Cl)C(C)(C(=O)OCC)C1 (stereo not given)	inactive

###

- EXPERIMENTAL TARGET: Transcription factor Sp1 (Homo sapiens)
- EXPERIMENTAL PROTOCOL: ATG_Sp1_CIS: Attagene CIS-FACTORIAL HepG2 Assay for human Specificity Protein 1 (Sp1) (AID 2282961)
- CONDITION INFO: HepG2 Sp1 cis-reporter transcription, actives raise or lower the signal
Active and inactive are the calls of the source. How the source made its calls: active means hit-call score of the fitted dose curve at least 0.9, where 1 is the maximum; inactive means score below 0.9.
Classes used: label 1 = active, label 0 = inactive

COMPOUND	ASSIGNED CATEGORY
CC(=O)CCC1=C(C)CCCC1(C)C	label 0
Cc1ccccc1CCO	label 0
CCCCNC(=S)NCCCC	label 0
CC(C)(c1ccccc1)c1ccc(Nc2ccc(C(C)(C)c3ccccc3)cc2)cc1	label 0
CCCCOCC(C)O (stereo not given)	label 0
CC1(C)CCC[C@]2(C)[C@H]3CC(=O)O[C@]3(C)CC[C@@H]12	label 0
CCCC(CC)c1ccccc1 (stereo not given)	label 1
Cc1noc(NS(=O)(=O)c2ccc(N)cc2)c1C	label 0
CCCCCOC(=O)CCCCC	label 0
O=S(=O)(O)c1ccc(N=Nc2c(O)ccc3ccccc23)cc1	label 0
Nc1ncnc2nc[nH]c12	label 0
C=C[Si](OCCOC)(OCCOC)OCCOC	label 0
COC(Cc1ccccc1)OC	label 0
Cc1c(Cl)cccc1Cl	label 0
N#Cc1ccc(C(c2ccc(C#N)cc2)n2cncn2)cc1	label 0
CCCc1ccc(O)c(OC)c1	label 0
CCCCCCCC(=O)OCC	label 0
CCCCCCO	label 0
O=C(O)CC(C(=O)O)S(=O)(=O)O (stereo not given)	label 0
CCCCCCCCCCCCCCCCCCOS(=O)(=O)O	label 0
CCCCOC(=O)C(C)CC (stereo not given)	label 0
Clc1cccnc1	label 0
CC/C=C\CCOC(=O)c1ccccc1O	label 0
C=C1C[C@H]2[C@@H]3C=C(C)C4=CC(=O)CC[C@]4(C)[C@H]3CC[C@]2(C)[C@@]1(OC(C)=O)C(C)=O	label 0
CCCCCCCOC(=O)c1ccc(O)cc1	label 1
COc1ccc(-c2coc3cc(O)cc(O)c3c2=O)cc1	label 0
COc1nccnc1CC(C)C	label 0
CC=C(C)C=CC=C(C)C	label 0
CCCCCCCCCCCCc1ccc(O)cc1	label 0
CCCCCCCO	label 0
CC=CC(=O)OCC(C)C	label 0
C=CC(=O)OCCCCCCCCCC	label 0
CC1(C)CC(O)CC(C)(C)N1[O]	label 0
CC(CC=O)CC(C)(C)C (stereo not given)	label 0
CC(=O)OCC=C(C)C	label 0
COC(OC)(C(=O)c1ccccc1)c1ccccc1	label 0
CCc1occc(=O)c1O	label 0
Nc1ccnc(=O)[nH]1	label 0
CCOC(=O)/C=C\C(=O)OCC	label 0
CC(=O)CC(=O)Nc1ccccc1C	label 0
C=CC(=O)NCOCCCC	label 0
C=CC(=O)O[C@H]1C[C@@H]2CC[C@@]1(C)C2(C)C	label 1
C=CC(=O)NC(C)(C)C	label 0
CCc1cccc(CC)c1	label 0
O=C(O[C@@H]1Cc2c(O)cc(O)cc2O[C@@H]1c1cc(O)c(O)c(O)c1)c1cc(O)c(O)c(O)c1	label 0
CC(C)COC(=O)CC(C(=O)OCC(C)C)S(=O)(=O)O (stereo not given)	label 0
CCCCCCCCCCCCCC(=O)OC(C)C	label 0
CC1OC(=O)C(C)OC1=O (stereo not given)	label 0
C=C(C)C(=O)OCCOC(=O)C(=C)C	label 0
C=CCNCC=C	label 0

Every entry's value here was drawn from PubChem BioAssay (EPA / NIEHS).
